- test.details: A CellTox Green Cytotoxicity Assay to monitor cytotoxicity in HepG2 cells - 8 hour (AID 1224890); further: nearly all actives have a fitted effect of over 45% in size
- condition.parameters: CellTox Green fluorescence; series mostly up to 76.8 µM
Results filed as inconclusive are left out. The source made the active and inactive calls. The call rests on the fitted dose curve; in most records, active means well fitted activation curve with a large enough effect in the repeat runs; inconclusive means weak or mixed curves; inactive means flat fitted curve, though single readings scatter.
Outcomes: T = active, F = inactive

>  <molecule>
COc1ccc(N)cc1N

>  <category.label>
F

$$$$
>  <molecule>
[CH3][Hg][Cl]

>  <category.label>
T

$$$$
>  <molecule>
O=C(CBr)c1ccc(O)cc1

>  <category.label>
F

$$$$
>  <molecule>
CN(CCCC(O)c1cccnc1)N=O (stereo not drawn)

>  <category.label>
F

$$$$
>  <molecule>
CCCCCCCCCBr

>  <category.label>
F

$$$$
>  <molecule>
N#CCc1ccc(Cl)cc1

>  <category.label>
F

$$$$
>  <molecule>
Oc1cccc(-c2ccccc2)c1

>  <category.label>
F

$$$$
>  <molecule>
O=c1ssc(Cl)c1Cl

>  <category.label>
T

$$$$
>  <molecule>
CN(C)CCc1c[nH]c2ccc(O)cc12

>  <category.label>
F

$$$$
>  <molecule>
N#Cc1ccccc1Cl

>  <category.label>
F

$$$$
>  <molecule>
N#Cc1ccccc1N

>  <category.label>
F

$$$$
>  <molecule>
CC(C)(C)C(O)C(Oc1ccc(-c2ccccc2)cc1)n1cncn1 (stereo not drawn)

>  <category.label>
F

$$$$
>  <molecule>
Nc1c(Oc2ccccc2)cc(O)c2c1C(=O)c1ccccc1C2=O

>  <category.label>
F

$$$$
>  <molecule>
N#CC(Cl)Cl

>  <category.label>
T

$$$$
>  <molecule>
CCCCCCCCCCCCBr

>  <category.label>
F

$$$$
>  <molecule>
CCSC(C)CC1CC(=O)C(/C(CC)=N/OC/C=C/Cl)=C(O)C1 (stereo not drawn)

>  <category.label>
F

$$$$
>  <molecule>
COCC(=O)N(c1c(C)cccc1C)[C@H](C)C(=O)OC

>  <category.label>
F

$$$$
>  <molecule>
Cc1cc(C)cc(OP(=O)(Oc2cc(C)cc(C)c2)Oc2cc(C)cc(C)c2)c1

>  <category.label>
F

$$$$
>  <molecule>
CC(C)CCCCCCCOP(=O)(Oc1ccccc1)Oc1ccccc1

>  <category.label>
F

$$$$
>  <molecule>
Cc1c(Cl)c(=O)oc2cc(OP(=O)(OCCCl)OCCCl)ccc12

>  <category.label>
F

$$$$
>  <molecule>
COc1ccc(OC)c(C=O)c1

>  <category.label>
F

$$$$
>  <molecule>
CCOC(=O)OC1=C(c2cc(C)ccc2C)C(=O)NC12CCC(OC)CC2 (stereo not drawn)

>  <category.label>
F

$$$$
>  <molecule>
[Cd+2].[Cl-].[Cl-]

>  <category.label>
F

$$$$
>  <molecule>
Clc1ccc(Oc2ccccc2)cc1

>  <category.label>
F

$$$$
>  <molecule>
Cc1ccc(C(=O)Cl)cc1

>  <category.label>
F

$$$$
>  <molecule>
C[C@@H]1O[C@@H](O[C@H]2C[C@@H](O)[C@]3(CO)[C@H]4[C@H](O)C[C@]5(C)[C@@H](C6=CC(=O)OC6)CC[C@]5(O)[C@@H]4CC[C@]3(O)C2)[C@H](O)[C@H](O)[C@H]1O

>  <category.label>
F

$$$$
>  <molecule>
C[CH2][Hg][N]1C(=O)C2C(C1=O)C1(Cl)C(Cl)=C(Cl)C2(Cl)C1(Cl)Cl (stereo not drawn)

>  <category.label>
T

$$$$
>  <molecule>
CCCCCCCCCCCCCC[P+](CCCCCC)(CCCCCC)CCCCCC (tested in a mixture with another compound)

>  <category.label>
T

$$$$
>  <molecule>
CC(=O)[O-].CC(=O)[O-].[Hg+2]

>  <category.label>
T

$$$$
>  <molecule>
O=C(CCl)C(Cl)Cl

>  <category.label>
F

$$$$
>  <molecule>
Cc1cc(Cl)ccc1O[C@H](C)C(=O)O

>  <category.label>
F

$$$$
>  <molecule>
CC(C)[C@H](C(=O)OC(C#N)c1cccc(Oc2ccccc2)c1)c1ccc(OC(F)F)cc1 (stereo partly drawn)

>  <category.label>
F

$$$$
>  <molecule>
N#Cc1c(-c2ccc(Cl)cc2)[nH]c(C(F)(F)F)c1Br

>  <category.label>
F

$$$$
>  <molecule>
ClC1=C(Cl)[C@]2(Cl)[C@@H]3[C@@H](Cl)[C@H](Cl)C[C@@H]3[C@@]1(Cl)C2(Cl)Cl

>  <category.label>
F

$$$$
>  <molecule>
O=c1c(C2CC(c3ccc(-c4ccc(Br)cc4)cc3)Cc3ccccc32)c(O)sc2ccccc12 (stereo not drawn)

>  <category.label>
F

$$$$
>  <molecule>
CCCCCCCCCCCCCN1CC(C)OC(C)C1 (stereo not drawn)

>  <category.label>
F

$$$$
>  <molecule>
Oc1c(Cl)c(Cl)cc(Cl)c1Cl

>  <category.label>
F

$$$$
>  <molecule>
CC(=[OH+])/C=C(/C)[O-].CC(=[OH+])/C=C(\C)[O-].CC(=[OH+])/C=C(\C)[O-].[Fe]

>  <category.label>
F

$$$$
